Molecular target: T1, recombinant Motavizumab human IgE (rMota-hIgE) (human, UniProt P01854 1-428)
T1 construct: also called Recombinant IgE (argenx)
T1 sequence (P01854 other isoform, or with tags, fused parts or gaps limits assumed, form in doubt): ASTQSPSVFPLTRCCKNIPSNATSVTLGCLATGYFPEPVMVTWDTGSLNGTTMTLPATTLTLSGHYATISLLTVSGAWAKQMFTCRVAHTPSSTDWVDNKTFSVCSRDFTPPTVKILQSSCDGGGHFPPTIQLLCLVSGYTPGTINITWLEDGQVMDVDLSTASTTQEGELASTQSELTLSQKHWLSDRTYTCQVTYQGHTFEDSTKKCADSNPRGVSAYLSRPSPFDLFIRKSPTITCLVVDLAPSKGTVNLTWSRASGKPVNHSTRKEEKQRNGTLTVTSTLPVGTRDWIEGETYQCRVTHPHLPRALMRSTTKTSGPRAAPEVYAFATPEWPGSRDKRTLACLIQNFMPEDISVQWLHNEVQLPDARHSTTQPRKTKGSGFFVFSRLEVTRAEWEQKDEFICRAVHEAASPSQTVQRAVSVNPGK
Test: hIgE binding ELISA, pH 5.5
readout-name: EC50 (µg/mL)
State the answer as a number, implicitly in µg/mL.

Param item = OmaVH15G55H - VL3D28H (antibody, V domains shown, also called OmaVH15G55H VL3D25H) VH: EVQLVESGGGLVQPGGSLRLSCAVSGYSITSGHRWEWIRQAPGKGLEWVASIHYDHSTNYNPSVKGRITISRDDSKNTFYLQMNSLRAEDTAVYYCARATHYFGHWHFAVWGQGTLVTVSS VL: DIQLTQSPSSLSASVGDRVTITCRASQSVDYHGDSYMNWYQQKPGKAPKLLIEWGSYLRSGVPSRFSGSGSGTDFTLTISSLQPEDFATYYCQQNAEDPYTFGQGTKVEIK ; retrieve measured EC50.
0.0251

Where do these numbers come from? They come from patent US20220177604A1.
